# System: SK-OV-3 ovarian
# experiment-description: NCI tumour cell line growth inhibition, 48 h
I'd appreciate it if you could supply TGI values for the items below.

Consider the molecule shown here: C#Cc1cc(CN(CC(=O)OC(C)(C)C)CC(=O)OC(C)(C)C)nc(CN(CC(=O)OC(C)(C)C)CC(=O)OC(C)(C)C)c1 What is its recorded TGI?
51 µM

Consider the molecule shown here: COc1ccc(C)cc1Nc1nnc(-c2ccc(N)cc2)s1 What is its recorded TGI?
> 100 µM

Consider the molecule shown here: Cc1ccccc1NC(=O)c1ccc([N+](=O)[O-])cc1 What is its recorded TGI?
> 100 µM

Consider the molecule shown here: Cc1cc2nc(C(Cl)Cl)nc(-c3ccccc3)n2n1 What is its recorded TGI?
21.5 µM

Consider the molecule shown here: CC1c2cc(c3c(c2O)CN([C@@H](C)C2CCCCC2)CO3)C(C)c2cc(c3c(c2O)CN([C@@H](C)C2CCCCC2)CO3)C(C)c2cc(c3c(c2O)CN([C@@H](C)C2CCCCC2)CO3)C(C)c2cc1c1c(c2O)CN([C@@H](C)C2CCCCC2)CO1 (stereo not given in full) What is its recorded TGI?
2.72 µM

====

# Tested on: RPMI-8226 leukemia
# experiment-description: NCI tumour cell line growth inhibition, 48 h
reported-metric: TGI

Consider the molecule shown here: Nc1ncnc2c1ncn2C1CC(OC2CCCCO2)C(CO)O1 (configuration not stated) What is its recorded TGI?
> 100 µM

Consider the molecule shown here: O=C(CC(=O)N1N=C(N(c2ccccc2)c2ccccc2)CC1c1ccccc1)Nc1ccccc1 (configuration not stated) What is its recorded TGI?
> 100 µM

Consider the molecule shown here: COc1ccc2c(c1)C(=O)c1c-2c(NCCN(C)C)nc2ccccc12 What is its recorded TGI?
4.53 µM

Consider the molecule shown here: O=C(O)CCSC(=S)Nc1ccc([N+](=O)[O-])cc1 What is its recorded TGI?
> 77.2 µM

Consider the molecule shown here: O=S(=O)(CCCCl)SCCCCl What is its recorded TGI?
64.1 µM

Consider the molecule shown here: O=c1c2cc(S(=O)(=O)Nc3c(Cl)cccc3Cl)ccc2ncn1NS(=O)(=O)c1ccc2ccccc2c1 What is its recorded TGI?
> 62.5 µM

Consider the molecule shown here: Cc1c(-c2nnc(-c3cc(Cl)c(Cl)cc3Cl)o2)nnn1-c1ccnc2c(C(F)(F)F)cccc12 What is its recorded TGI?
54.1 µM

Consider the molecule shown here: CC(=O)CCC[C@H](C)[C@@H](O)[C@@H]1O[C@H]([C@@]2(C)CCC(=O)O2)C[C@H]1C(=O)O What is its recorded TGI?
> 100 µM

Consider the molecule shown here: CC1=CC(=O)c2ccc(C)cc2C1=O What is its recorded TGI?
6.36 µM

Consider the molecule shown here: Fc1ccc2c3c([nH]c2c1)CCNC3 What is its recorded TGI?
> 100 µM

Consider the molecule shown here: CC(C)c1cccc(C(C)C)c1NC(=O)CCC(=O)NN What is its recorded TGI?
> 100 µM

Consider the molecule shown here: O=S(=O)(O)C(Cc1nc2ccccc2[nH]1)S(=O)(=O)OCCC1S(=O)(=O)OCCOS1(=O)=O (configuration not stated) What is its recorded TGI?
> 100 µM

====

# System: UO-31 renal
# experiment-description: NCI tumour cell line growth inhibition, 48 h
reported-metric: TGI

Consider the compound shown here: Cc1cc(=O)[nH]c(NNC(C#N)c2ccco2)n1 (centres undefined) What is its recorded TGI?
> 100 µM

Consider the compound shown here: CSC1(CC(=O)N2CCCCC2)C(=O)Nc2ccccc21 (centres undefined) What is its recorded TGI?
> 100 µM

Consider the compound shown here: CN1CCN(CC(=O)N2c3cccc4cccc(c34)N(C(=O)CN3CCN(C)CC3)C2c2cn(-c3ccccc3)nc2-c2cccc([N+](=O)[O-])c2)CC1 What is its recorded TGI?
2.75 µM

Consider the compound shown here: O=C(c1ccccc1)C1C[C@H]2CO[C@H](c3ccccc3)N2C1=O (some centres undefined) What is its recorded TGI?
> 100 µM

Consider the compound shown here: C=C(C)[C@@H]1CC[C@]2(C(N)=O)CC[C@]3(C)[C@H](CC[C@@H]4[C@@]5(C)C/C(=C/c6cccnc6)[C@H](O)C(C)(C)[C@@H]5CC[C@]43C)[C@@H]12 What is its recorded TGI?
> 100 µM

Consider the compound shown here: Fc1ccc2c3c([nH]c2c1)CCNC3 What is its recorded TGI?
99.7 µM

Consider the compound shown here: COc1ccc(-n2sc3ncc([N+](=O)[O-])cc3c2=O)cc1 What is its recorded TGI?
> 100 µM

Consider the compound shown here: Oc1cccc2c1[nH]c1c(C3=C[C@@]4(O)CC/C=C\CCCCN5CC[C@@H]3[C@]3(CC6/C=C\CCCCN6[C@H]34)C5)nccc12 (some centres undefined) What is its recorded TGI?
3.5 µM

Consider the compound shown here: N#CC(c1ccccc1)N(CCOCCOCCN(C(=O)c1cccc2ccccc12)C(C#N)c1ccccc1)C(=O)c1cccc2ccccc12 (centres undefined) What is its recorded TGI?
> 100 µM

====

# Tested on: UACC-62 melanoma
# experiment-description: NCI tumour cell line growth inhibition, 48 h
I'd appreciate it if you could supply TGI values for the items below.
Report the value in µM with no unit label.

Consider the molecule shown here: N#CCc1nc(-c2cc3c(ccc4ccccc43)oc2=O)cs1 What is its recorded TGI?
68.4

Consider the molecule shown here: COc1cccc(C2c3cc4c(cc3OC(N3CCCCC3)C2C)OCO4)c1OC (stereo not drawn) What is its recorded TGI?
33.6

Consider the molecule shown here: Cc1ccc(NC(=O)CC2C(=O)Nc3ccccc3S2=O)c(C)c1 (stereo not drawn) What is its recorded TGI?
42.4

Consider the molecule shown here: CC1=CC(=O)c2ccc(C)cc2C1=O What is its recorded TGI?
21.9

====

I'd appreciate it if you could supply TGI values for the items below.
# System: SF-268 CNS
# experiment-description: NCI tumour cell line growth inhibition, 48 h
Report the value in µM with no unit label.

Consider the compound shown here: Cc1ccc(SSCCCCCS(=O)O)cc1 What is its recorded TGI?
36.1

Consider the compound shown here: COc1cc2c(cc1OCCCN1CCN(c3ncnc4ccccc34)CC1)N=CC1CCCN1C2=O (stereo not drawn) What is its recorded TGI?
0.625

Consider the compound shown here: COc1cnc2c(c1)C(=O)c1c-2n(CCCNC(C)C)c(=O)c2cc([N+](=O)[O-])ccc12 What is its recorded TGI?
1.42

Consider the compound shown here: COc1ccc2c(c1)C(=O)c1c-2c(NCCN(C)C)nc2ccccc12 What is its recorded TGI?
15.5

Consider the compound shown here: CC1c2cc(c3c(c2O)CN([C@@H](C)C2CCCCC2)CO3)C(C)c2cc(c3c(c2O)CN([C@@H](C)C2CCCCC2)CO3)C(C)c2cc(c3c(c2O)CN([C@@H](C)C2CCCCC2)CO3)C(C)c2cc1c1c(c2O)CN([C@@H](C)C2CCCCC2)CO1 (stereo partly drawn) What is its recorded TGI?
2.85

====

# Test system: NCI-H460 lung
# experiment-description: NCI tumour cell line growth inhibition, 48 h
I'd appreciate it if you could supply TGI values for the items below.
Report the value in µM with no unit label.

Consider the molecule shown here: CCCCCC/C=C1\CCC(CN(C)C)C1=O (configuration not stated) What is its recorded TGI?
35.1

Consider the molecule shown here: CC1=CC(=O)c2ccc(C)cc2C1=O What is its recorded TGI?
32.4

Consider the molecule shown here: CC[C@H]1C=CCC[C@@]2(C[C@@H]3CC[C@H]4[C@H](C(=O)OCCCCCCCCCCCCCCCC(=O)N(CCCN)C[C@@H](O)CCN)[C@]5(CCC[C@@H](C)O5)NC(=[N+]34)N2)O1 What is its recorded TGI?
1.87

Consider the molecule shown here: CC(C)(C)C(=O)/C=C/c1cccc(Oc2ccccc2)c1 What is its recorded TGI?
32.5

Consider the molecule shown here: Oc1c(CN2CCN(c3ccccc3F)CC2)cc(Br)c2cccnc12 What is its recorded TGI?
9.26

Consider the molecule shown here: CC1C(O)Oc2cc3c(cc2C1c1ccccc1O)OCO3 (configuration not stated) What is its recorded TGI?
64.1

Consider the molecule shown here: COc1ccc(C(c2cc3c(cc2O)OCO3)N2CCOCC2)cc1OC (configuration not stated) What is its recorded TGI?
71.9

Consider the molecule shown here: C=C(CN(C)C)C(=O)c1ccc(Oc2ccccc2)cc1 What is its recorded TGI?
51.6

Consider the molecule shown here: O=c1c(=[n+]2ccc(=C([O-])c3ccccc3)cc2)/c(=N/S(=O)(=O)c2ccccc2)c(=O)c2ccccc12 What is its recorded TGI?
36.2

Consider the molecule shown here: Cc1nc2sc(C(=O)Nc3cccc(Br)c3)c(N)c2cc1C(O)c1ccccc1 (configuration not stated) What is its recorded TGI?
4.74

Consider the molecule shown here: Oc1c(I)cc(I)cc1CN(Cc1ccccn1)Cc1ccccn1 What is its recorded TGI?
8.68

Consider the molecule shown here: C=C1C(=O)O[C@H]2[C@H]1CC/C(COC(=O)NCc1cc(OC)cc(OC)c1)=C\CC[C@@]1(C)O[C@@H]21 What is its recorded TGI?
11.6

Consider the molecule shown here: Oc1cccc2c1[nH]c1c(C3=C[C@@]4(O)CC/C=C\CCCCN5CC[C@@H]3[C@]3(CC6/C=C\CCCCN6[C@H]34)C5)nccc12 (some centres not stated) What is its recorded TGI?
2.19

Consider the molecule shown here: Cc1cc2nc(C(Cl)Cl)nc(-c3ccccc3)n2n1 What is its recorded TGI?
5.13

Consider the molecule shown here: COc1ccc2nc(-c3cc4c([nH]c5ccccc54)c(-c4ccc(F)c(F)c4)n3)[nH]c2c1 What is its recorded TGI?
12.5

Consider the molecule shown here: c1ccc2c(CNCCCCCCCCCCCCNCc3cccc4ccccc34)cccc2c1 What is its recorded TGI?
2.95

Consider the molecule shown here: Nc1c2ccccc2nc2ccccc12 (tested in a mixture with another compound) What is its recorded TGI?
8.99
